- Experimental Target: Indoleamine 2,3-dioxygenase 1 (IDO1) (Homo sapiens (Human))
- Sequence (P14902 whole entry): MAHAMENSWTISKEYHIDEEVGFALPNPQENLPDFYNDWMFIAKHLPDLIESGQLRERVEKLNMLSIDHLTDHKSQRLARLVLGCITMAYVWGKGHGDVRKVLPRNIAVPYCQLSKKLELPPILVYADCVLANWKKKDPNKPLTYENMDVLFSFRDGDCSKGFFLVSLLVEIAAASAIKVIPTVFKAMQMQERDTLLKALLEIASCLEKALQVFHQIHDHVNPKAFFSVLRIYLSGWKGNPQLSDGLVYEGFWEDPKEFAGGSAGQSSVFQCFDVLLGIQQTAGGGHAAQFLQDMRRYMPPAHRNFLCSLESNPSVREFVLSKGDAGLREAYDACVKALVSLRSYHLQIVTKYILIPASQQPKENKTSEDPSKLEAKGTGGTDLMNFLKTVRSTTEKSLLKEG
- Assay Info: Cellular IDO1 assay: kynurenine production in IFN-γ-stimulated HeLa cells, colorimetric
Each entry below carries its recorded IC50.

* Cc1ccc(F)c2c(=O)n3c(nc12)C(=O)c1cc([N+](=O)[O-])ccc1-3 | 0.05 to 0.5 µM
* Nc1ccc2c(=O)n3c(nc2c1)C(=O)c1cc([N+](=O)[O-])ccc1-3 | 0.05 to 0.5 µM

Prompt: Please list IC50 recorded for the compound O=C(O)c1ccc2c(c1)C(=O)c1nc3cc(Cl)ccc3c(=O)n1-2
Completion: > 0.5 µM

Prompt: Please list IC50 recorded for the compound NS(=O)(=O)NCCNC(=O)c1ccc2c(c1)C(=O)c1nc3cc(Cl)cc(Cl)c3c(=O)n1-2
Completion: > 0.5 µM

Prompt: Please list IC50 recorded for the compound Nc1ccc2c(c1)C(=O)c1nc3cc(Cl)ccc3c(=O)n1-2
Completion: > 0.5 µM

Prompt: Please list IC50 recorded for the compound Cc1cccc2nc3n(c(=O)c12)-c1ccc([N+](=O)[O-])cc1C3=O
Completion: < 0.05 µM

Prompt: Please list IC50 recorded for the compound Cc1cccc2c(=O)n3c(nc12)C(=O)c1cc([N+](=O)[O-])ccc1-3
Completion: < 0.05 µM

Prompt: Please list IC50 recorded for the compound NC(=O)c1ccc2c(c1)C(=O)c1nc3cc(Cl)ccc3c(=O)n1-2
Completion: 0.05 to 0.5 µM

====

- Experimental Target: IDO2 (Homo sapiens (Human), UniProt Q6ZQW0)
- Sequence (Q6ZQW0 whole entry, species assumed): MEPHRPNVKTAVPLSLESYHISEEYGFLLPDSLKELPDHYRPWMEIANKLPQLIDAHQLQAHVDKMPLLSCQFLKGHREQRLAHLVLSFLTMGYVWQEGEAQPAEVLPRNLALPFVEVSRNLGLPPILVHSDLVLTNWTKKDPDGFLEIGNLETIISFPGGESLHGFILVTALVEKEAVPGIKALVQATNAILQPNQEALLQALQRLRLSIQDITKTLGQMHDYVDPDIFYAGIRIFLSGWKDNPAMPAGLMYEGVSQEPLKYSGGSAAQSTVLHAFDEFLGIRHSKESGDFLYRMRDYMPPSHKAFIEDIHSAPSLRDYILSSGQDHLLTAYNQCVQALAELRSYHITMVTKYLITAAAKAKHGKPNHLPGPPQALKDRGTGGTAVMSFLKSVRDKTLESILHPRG
- Assay Info: Cellular IDO2 assay, doxycycline and 5-methoxy-L-tryptophan medium, colorimetric
- Format: cell-based
- Measurement Setup: cellular level, 72 h incubation, signal at 480 nm
Readout Name: IC50

- O=C1c2cc(F)ccc2-n2c1nc1cc(-c3c[nH]cn3)ccc1c2=O: 50 to 500 nM

Could you now look at the following molecule, please?
Prompt: Please list IC50 recorded for the molecule Cc1cc(F)cc2c(=O)n3c(nc12)C(=O)c1cc([N+](=O)[O-])ccc1-3
Completion: < 50 nM

====

- Experimental Target: IDO2 (Homo sapiens (Human))
- Assay Info: Cellular IDO2 assay, doxycycline and 5-methoxy-L-tryptophan medium, colorimetric
- Format: cell-based
- Measurement Setup: cellular level, 72 h incubation, signal at 480 nm
Readout Name: IC50

• CO/N=C1\c2cc(F)ccc2-n2c1nc1cc(CNS(N)(=O)=O)ccc1c2=O = < 50 nM
• CO/N=C1/c2cc(F)ccc2-n2c1nc1ccc(CNc3ccccn3)cc1c2=O = 50 to 500 nM
• CN(C)Cc1ccc2nc3n(c(=O)c2c1)-c1ccc(SCc2ccccc2)cc1C3=O = > 500 nM
• NCc1cccc2nc3n(c(=O)c12)-c1ccc(F)cc1C3=O [Compound 101] = 50 to 500 nM

Prompt: Please list IC50 recorded for the compound O=C1c2cc([N+](=O)[O-])ccc2-n2c1nc1c(Br)c(Cl)ccc1c2=O
Completion: 50 to 500 nM

Prompt: Please list IC50 recorded for the compound COc1cc2c(=O)n3c(nc2cn1)C(=O)c1cc([N+](=O)[O-])ccc1-3
Completion: 50 to 500 nM

Prompt: Please list IC50 recorded for the compound NCCNC(=O)c1ccc2c(c1)/C(=N\O)c1nc3cc(Cl)ccc3c(=O)n1-2 [Compound 68]
Completion: 50 to 500 nM

Prompt: Please list IC50 recorded for the compound CC(C)(C)OC(=O)NCCNC(=O)c1ccc2c(c1)C(=O)c1nc3cc(Cl)ccc3c(=O)n1-2
Completion: 50 to 500 nM
